src = ChEMBL document CHEMBL1135697

Test system: Calf thymus DNA
Assay: Binding constant to reduce by 50% the fluorescence of ethidium bromide bound to calf thymus DNA
Assay type: functional
Conditions: Bos taurus
READOUT NAME: K app x10e6 (M⁻¹)
Give the value in M⁻¹ but do not write M⁻¹ after it.

Endpoint output: K app x10e6 of Cc1cc2n(c(=O)c1C(N)=O)Cc1cc3cc(OCCN4CCCCC4)ccc3nc1-2 . Value?
0.29

Endpoint output: K app x10e6 of Cc1cc2n(c(=O)c1CN)Cc1cc3cc(OCCN4CCCCC4)ccc3nc1-2 . Value?
2.5

Endpoint output: K app x10e6 of Cc1cc2n(c(=O)c1C(N)=O)Cc1cc3ccc(OCCN4CCCCC4)cc3nc1-2 . Value?
0.2

Endpoint output: K app x10e6 of Cc1cc2n(c(=O)c1CN)Cc1cc3ccc(OCCN4CCCCC4)cc3nc1-2 . Value?
8.4
